# assayed.target: TF(1-4)-ZIF (TFIIIA F1-4 fused to Zif268) (artificial)
# Sequence (chain, as listed by the source): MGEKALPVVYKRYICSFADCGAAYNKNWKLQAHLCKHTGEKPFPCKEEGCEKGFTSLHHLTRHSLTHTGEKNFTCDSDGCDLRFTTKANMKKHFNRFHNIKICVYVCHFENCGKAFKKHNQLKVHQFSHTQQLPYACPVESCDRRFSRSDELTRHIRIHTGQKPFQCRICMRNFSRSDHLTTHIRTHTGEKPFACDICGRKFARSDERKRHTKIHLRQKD
# experiment.notes: EMSA; apparent Kd; table prints gap as X8
# study.conditions: label: 32P
# Protocol: DNA binding reactions contain the appropriate zinc-finger peptide, binding site and 1 μg competitor DNA (poly dI-dC) in a total volume of 10 μl, which contains: 20 mM Bis-tris propane (pH 7.0), 100 mM NaCl, 5 mM MgCl₂, 50 μM ZnCl₂, 5 mM DTT, 0.1 mg/ml BSA, 0.1% Nonidet P40. […] Dissociation constants are determined in parallel to the calculation of active peptide concentration. […] Samples are run on 7% native polyacrylamide gels and the radioactive signals quantitated by PhosphorImager analysis. […]
measured.parameter: pKd
Scale for pKd: -log10 of concentration given in mol/L; no unit attached.

Request: Reported pKd, binder TF8Z (bsD1) (dsDNA) DNA 1: GCGTGGGCGTAGTACCTGGATGGGAGAC DNA 2: GTCTCCCATCCAGGTACTACGCCCACGC : ____
Result: 11.52
